# target_desc: T1, human CD8αα homodimer, recombinant protein (Acro Biosystems) (human, UniProt P01732 22-182)
# T1 construct: also called CD8αα antigen; biotinylated CD8α recombinant protein (CDA-H82E3)
# assay_notes: BLI kinetic rate analysis, Fab fragment (temperature not given)
pKd: −log10 of the molar value.

{"binder": "CBD1381 (Fab, V domains shown) VH: QVQLVQSGAEVKKPGASVKVSCKASRYTFTDYNLHWVRQAPGQGLEWMGFIYPYQGGTGYAQKFQGRVTMTVDTSTSTAYMELSSLRSEDTAVYYCARDHRYNEGVSFDYWGQGTTVTVSS VL: DIQLTQSPSSLSASVGDRATITCRASESVDGFGNSFMNWYQQKPGKAPKLLIYLASNLESGVPSRFSGSGSGTDFTLTISSVQPEDFATYYCQQNNEDPYTFGQGTKLEIK", "pKd": 8.91}
{"binder": "CBD1380 (Fab, V domains shown) VH: QVQLVQSGAEVKKPGASVKVSCKASRYTFTDYNLHWVRQAPGQGLEWMGFIYPYSGGTGYAQKFQGRVTMTVDTSTSTAYMELSSLRSEDTAVYYCARDHRYNEGVSFDYWGQGTTVTVSS VL: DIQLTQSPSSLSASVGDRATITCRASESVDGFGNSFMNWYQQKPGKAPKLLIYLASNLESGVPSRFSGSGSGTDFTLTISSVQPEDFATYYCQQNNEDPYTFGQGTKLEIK", "pKd": 8.71}
{"binder": "CBD1382 (Fab, V domains shown) VH: QVQLVQSGAEVKKPGASVKVSCKASRYTFTDYNLHWVRQAPGQGLEWMGFIYPYAGGTGYAQKFQGRVTMTVDTSTSTAYMELSSLRSEDTAVYYCARDHRYNEGVSFDYWGQGTTVTVSS VL: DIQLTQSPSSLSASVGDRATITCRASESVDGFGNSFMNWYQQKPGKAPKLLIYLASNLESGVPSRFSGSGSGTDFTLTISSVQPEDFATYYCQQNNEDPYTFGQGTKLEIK", "pKd": 9.07}

Reference source: patent US20250195685A1
